Test: Selectivity index, ratio of CC50 for human MT4 cells to IC50 for HIV NL4-3 infected in human MT4 cells
Type: toxicity, cell-based
Conditions: read-out: Ratio CC50/IC50
measure: selectivity ratio
Answer field: number only, no words.

structure_string: CCCCCCCCCCCCCC(=O)OCC1=C[C@@H]2C(=O)[C@]3(C=C(C)[C@H](O)[C@@]3(O)[C@@H]1O)[C@H](C)C[C@@H]1[C@H]2C1(C)C
selectivity ratio: 3770

## Input So what's the measured selectivity ratio for this one? "CCCCCCCCCCCCCCCC(=O)O[C@H]1C(C)=C[C@]23C(=O)[C@@H](C=C(CO)[C@@H](O)[C@]12O)[C@H]1[C@@H](C[C@H]3C)C1(C)C"
## Output 6420

## Input Check "CCCCCC/C=C/CCCCCCCC(=O)O[C@H]1C(C)=C[C@]23C(=O)[C@@H](C=C(CO)[C@@H](O)[C@@]12O)[C@H]1[C@@H](C[C@H]3C)C1(C)C" too.
## Output 13100

## Input Then "CCCCC/C=C\C=C\C(=O)O[C@@H]1C(COC(C)=O)=C[C@@H]2C(=O)[C@]3(C=C(C)[C@H](O)[C@@]13O)[C@H](C)C[C@@H]1[C@H]2C1(C)C" ?
## Output 20300

The origin of these recorded values is ChEMBL document CHEMBL4339238.
